tested on: HCT116; assay: AC50 cell viability (CellTiter-Glo); higher = less potent; conditions: 48 h;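 note: HCT116 colorectal carcinoma cells screened at five concentrations per compound, luminescent viability scaled between DMSO wells and empty wells on each plate, curves fitted per compound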
Value kind: log10 of AC50 cell viability (log10 of the value in µM)
Answers are given as log10 of AC50 cell viability in µM.

{"Compound": "Cc1cc(Nc2cc(N3CCN(C)CC3)nc(Sc3ccc(NC(=O)C4CC4)cc3)n2)[nH]n1", "log10 of AC50 cell viability": 0.87}
{"Compound": "C[C@@H]1C[C@@H]([C@H](O)CC2CC(=O)NC(=O)C2)C(=O)[C@@H](C)C1 [Cycloheximide]", "log10 of AC50 cell viability": -0.33}
{"Compound": "CC[C@H]1/C=C\\C=C/C[C@@H](C)[C@H](O)[C@@](C)(O)C(=O)[C@@H](C)[C@H](O)[C@@H](C)C(=O)[C@@H](C)[C@H](O)[C@@H](C)/C=C/C(=O)O[C@@H]2[C@H](C)[C@H](CC1)O[C@]1(CC[C@H](C)[C@H](C[C@@H](C)O)O1)[C@H]2C", "log10 of AC50 cell viability": 1.22}

Quick one: log10 of AC50 cell viability for NC1(CCC1)C2=CC=C(C=C2)C3=C(C=C/4C(=N3)\C=C/N5C(=O)N\N=C45)C6=CC=CC=C6 ? 1.22

Quick one: log10 of AC50 cell viability for O=C(/C=C\n1cnc(-c2cc(C(F)(F)F)cc(C(F)(F)F)c2)n1)NNc1cnccn1 [Selinexor] ? -0.43

Quick one: log10 of AC50 cell viability for NC(=O)c1cccc2cn(-c3ccc([C@@H]4CCCNC4)cc3)nc12 ? 1.27

Quick one: log10 of AC50 cell viability for CCC1=C2CN3C(=O)\C4=C(/C=C3/C2=NC5=CC=C(O)C=C15)[C@@](O)(CC)C(=O)OC4 ? -1.18

Quick one: log10 of AC50 cell viability for Cc1nc(-c2cn3c(n2)-c2ccc(-c4cnn(C(C)(C)C(N)=O)c4)cc2OCC3)n(C(C)C)n1 ? 0.77

Quick one: log10 of AC50 cell viability for CNC(=O)C1=CC=C(C)C(=C1)N2C(=C/C(=C(/Br)C2=O)OCC3=C(F)C=C(F)C=C3)\C ? 1.22
